# TARGET_ENTITY: 17β-hydroxysteroid dehydrogenase type 2 (17β-HSD type 2) (Homo sapiens, UniProt P37059)
# Construct: expressed in transfected cells; host or cells: MCF-7
# Sequence (P37059 whole entry): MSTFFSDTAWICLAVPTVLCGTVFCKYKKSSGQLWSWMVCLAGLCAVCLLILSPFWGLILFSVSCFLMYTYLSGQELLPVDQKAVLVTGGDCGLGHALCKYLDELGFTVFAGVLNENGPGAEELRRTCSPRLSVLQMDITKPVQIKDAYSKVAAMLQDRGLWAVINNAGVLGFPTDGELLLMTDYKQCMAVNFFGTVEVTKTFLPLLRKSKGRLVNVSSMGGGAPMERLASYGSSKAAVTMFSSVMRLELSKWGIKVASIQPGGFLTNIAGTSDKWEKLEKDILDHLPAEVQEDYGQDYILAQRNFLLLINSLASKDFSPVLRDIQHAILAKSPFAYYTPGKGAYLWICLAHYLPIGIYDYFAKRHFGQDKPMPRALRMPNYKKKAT
# ASSAY_EXPLANATION: Inhibition of 17β-HSD type 2 in MCF-7 cells stably expressing the isoenzyme (tritium labeled estradiol conversion, HPLC)
# Format: cell-based
# REPORTED_CONDITIONS: MCF7; 1 μM test compound; MCF-7 cells expressing 17β-HSD type 2; 2 nM tritium labeled estradiol; read-out: % Inhibition HSD2 1 μM
MEASURED_PARAMETER: inhibition at 1 µM (%)

1. COc1cc(-c2nc3sc4c(c3c(=O)n2Cc2ccco2)CCCC4)cc(OC)c1OC ... 25.1
2. CCCc1nc2sc3c(c2c(=O)n1Cc1ccc(Br)o1)CCC(Br)(Br)C3=O ... 26.6
3. COc1cc(-c2nc3sc4c(c3c(=O)n2Cc2ccccc2)CCC(Br)C4=O)cc(OC)c1OC (centres unmarked) ... 44

(P) CCCCn1c(-c2cc(OC)c(OC)c(OC)c2)nc2sc3c(c2c1=O)CC(C)CC3=O (centres unmarked)
(Q) COc1cc(-c2nc3sc4c(OC(C)=O)cccc4c3c(=O)n2CC(C)C)c(Br)c(OC)c1OC
// max by inhibition at 1 µM over [ P , Q ] Provide the label of your selected option as the answer.
Q
(Q: 23.6%, P: 12.7%)

----------
# TARGET_ENTITY: 17β-hydroxysteroid dehydrogenase type 3 (17β-HSD type 3) (Homo sapiens)
# Construct: expressed in transfected cells; host or cells: MCF-7
# Sequence (P37058 1-310): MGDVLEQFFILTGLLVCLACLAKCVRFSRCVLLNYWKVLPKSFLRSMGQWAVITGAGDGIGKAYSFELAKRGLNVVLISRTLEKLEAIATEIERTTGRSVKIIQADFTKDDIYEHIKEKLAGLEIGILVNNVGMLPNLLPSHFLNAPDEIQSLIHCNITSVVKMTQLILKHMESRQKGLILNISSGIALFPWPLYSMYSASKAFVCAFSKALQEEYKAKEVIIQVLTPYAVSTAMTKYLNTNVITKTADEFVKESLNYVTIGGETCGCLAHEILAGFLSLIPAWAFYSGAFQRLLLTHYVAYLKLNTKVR
# ASSAY_EXPLANATION: Inhibition of 17β-HSD type 3 in MCF-7 cells stably expressing the isoenzyme (tritium labeled androstenedione conversion, HPLC)
# Assay type: cell-based
# REPORTED_CONDITIONS: MCF7; 1 μM test compound; MCF-7 cells expressing 17β-HSD type 3; 2 nM tritium labeled androstenedione; read-out: % Inhibition HSD3 1 μM
MEASURED_PARAMETER: inhibition at 1 µM (%)

Some compounds with recorded inhibition at 1 µM:
1. COc1ccc(-c2nc3sc4c(c3c(=O)n2-c2ccccc2)CCCC4)cc1 ... -1.8
2. COc1cc(-c2nc3sc4c(c3c(=O)n2Cc2ccccc2)CCC(C=O)=C4Sc2ccccc2)cc(OC)c1OC ... 2.5

(a) COc1cc(-c2nc3sc4c(O)cc(C)cc4c3c(=O)n2Cc2ccccc2)c(Br)c(OC)c1OC
(b) COc1ccc(-c2nc3sc4c(c3c(=O)n2-c2ccccc2)CCCC4=O)cc1
a or b : whose inhibition at 1 µM is greater? State the label of the item chosen.
b
(b: 6.8%, a: -2.7%)

----------
# TARGET_ENTITY: 17β-hydroxysteroid dehydrogenase type 2 (17β-HSD type 2) (Homo sapiens)
# Construct: expressed in transfected cells; host or cells: MCF-7
# ASSAY_EXPLANATION: Inhibition of 17β-HSD type 2 in MCF-7 cells stably expressing the isoenzyme (tritium labeled estradiol conversion, HPLC)
# Assay type: cell-based
# REPORTED_CONDITIONS: MCF7; 1 μM test compound; MCF-7 cells expressing 17β-HSD type 2; 2 nM tritium labeled estradiol; read-out: % Inhibition HSD2 1 μM
MEASURED_PARAMETER: inhibition at 1 µM (%)

Here are 3 compounds together with their reported answers.
1) COCc1nc2sc3c(c2c(=O)n1-c1ccccc1)CCCC3 ... -6.8
2) COc1cc(-c2nc3sc4c(c3c(=O)n2CC(C)C)CCCC4=O)cc(OC)c1OC ... 15.5
3) CCCc1nc2sc3c(OC(C)=O)cccc3c2c(=O)n1Cc1cc(Br)ccc1OC ... 46.1

(A) CCCc1nc2sc3c(c2c(=O)n1Cc1cc(Br)ccc1OC)CCC(Br)C3=O (stereo not drawn)
(B) O=c1c2c(nc(-c3ccccc3)n1Cc1ccccc1)sc1c(O)c(Br)ccc12
Identify the item whose inhibition at 1 µM is the smaller number: A or B Your choice should be expressed through its label.
A

----------
# TARGET_ENTITY: 17β-hydroxysteroid dehydrogenase type 1 (17β-HSD type 1) (Homo sapiens, UniProt P14061)
# Construct: expressed in transfected cells; host or cells: MCF-7
# Sequence (P14061 whole entry): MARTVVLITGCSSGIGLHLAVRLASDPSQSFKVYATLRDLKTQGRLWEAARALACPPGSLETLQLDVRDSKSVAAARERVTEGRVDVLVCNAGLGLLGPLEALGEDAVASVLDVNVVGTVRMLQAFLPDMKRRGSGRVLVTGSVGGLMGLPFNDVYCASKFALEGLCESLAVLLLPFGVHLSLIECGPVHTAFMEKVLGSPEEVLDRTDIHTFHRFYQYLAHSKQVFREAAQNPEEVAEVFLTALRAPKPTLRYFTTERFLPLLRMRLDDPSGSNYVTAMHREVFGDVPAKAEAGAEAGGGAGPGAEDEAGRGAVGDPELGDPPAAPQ
# ASSAY_EXPLANATION: Inhibition of 17β-HSD type 1 in MCF-7 cells stably expressing the isoenzyme (tritium labeled estrone conversion, HPLC)
# Assay type: cell-based
# REPORTED_CONDITIONS: MCF7; 1 μM test compound; MCF-7 cells expressing 17β-HSD type 1; 2 nM tritium labeled estrone; read-out: % Inhibition HSD1 1 μM
MEASURED_PARAMETER: inhibition at 1 µM (%)

1) COCCn1c(-c2cccs2)nc2sc3c(c2c1=O)CCC(Br)C3=O (stereo not drawn) [No. 76] ... 35.8
2) COc1cc(-c2nc3sc4c(O)ccc(C)c4c3c(=O)n2Cc2ccccc2)c(Br)c(OC)c1OC [No. 686] ... 2.1
3) COCc1nc2sc3c(c2c(=O)n1-c1ccccc1)CCCC3 [No. 36] ... 20.7
4) CCCc1nc2sc3c(OC(C)=O)cccc3c2c(=O)n1Cc1cc(Br)ccc1OC [No. 99] ... 21.8
5) CCCc1nc2sc3c(c2c(=O)n1Cc1ccco1)CCCC3 [No. 101] ... 14.1
6) COc1ccc(-c2nc3sc4c(Oc5ccccc5)c(CO)ccc4c3c(=O)n2Cc2ccccc2)cc1 [No. 20] ... 26
7) COc1cc(-c2nc3sc4c(c3c(=O)n2Cc2ccccc2)CCC(C=O)=C4Oc2ccccc2)cc(OC)c1OC [No. 4] ... 20.1

(I) O=C1c2sc3nc(-c4ccc(Br)s4)n(Cc4ccccc4)c(=O)c3c2CCC1(Br)Br [No. 66]
(II) O=c1c2c(nc(-c3ccccc3)n1Cc1ccccc1)sc1c(O)cccc12 [No. 60]
Short answer wanted: higher inhibition at 1 µM, I or II ? # reply format: chosen label
II

----------
# TARGET_ENTITY: 17β-hydroxysteroid dehydrogenase type 1 (17β-HSD type 1) (Homo sapiens, UniProt P14061)
# Construct: expressed in transfected cells; host or cells: MCF-7
# ASSAY_EXPLANATION: Inhibition of 17β-HSD type 1 in MCF-7 cells stably expressing the isoenzyme (tritium labeled estrone conversion, HPLC)
# Type: cell-based
# REPORTED_CONDITIONS: MCF7; 1 μM test compound; MCF-7 cells expressing 17β-HSD type 1; 2 nM tritium labeled estrone; read-out: % Inhibition HSD1 1 μM
MEASURED_PARAMETER: inhibition at 1 µM (%)

1) CCCc1nc2sc3c(O)cccc3c2c(=O)n1Cc1cc(Br)ccc1O [No. 100] ... 23.5
2) O=C1c2sc3nc(-c4ccccc4)n(Cc4ccccc4)c(=O)c3c2CCC1(Br)Br [No. 59] ... 24
3) O=c1c2c3c(sc2nc(-c2ccccc2)n1Cc1ccccc1)CCCC3 [No. 56] ... 21.3
4) CCCc1nc2sc3c(O)c(Br)ccc3c2c(=O)n1Cc1ccc(Br)o1 [No. 107] ... -14.2
5) COc1cc(-c2nc3sc4c(c3c(=O)n2Cc2ccccc2)CC(C)CC4)cc(OC)c1OC (stereo not drawn) [No. 687] ... -3.3
6) CCC(C)Cn1c(-c2cc(OC)c(OC)c(OC)c2Cl)nc2sc3c(O)cccc3c2c1=O (stereo not drawn) [No. 143] ... 40.1

(1) CCOC(=O)c1nc2sc3c(c2c(=O)n1-c1ccccc1)CCCC3 [No. 40]
(2) COc1cc(-c2nc3sc4ccccc4c3c(=O)n2Cc2ccccc2)c(Br)c(OC)c1OC [No. 51]
(3) COCCn1c(-c2cc(OC)c(OC)c(OC)c2)nc2sc3c(c2c1=O)CCCC3 [No. 108]
(4) COc1cc(-c2nc3sc4c(O)cccc4c3c(=O)n2CC2CCCO2)c(Cl)c(OC)c1OC (stereo not drawn) [No. 140]
(5) O=C1CCCc2c1sc1nc(-c3ccccc3)n(Cc3ccccc3)c(=O)c21 [No. 57]
Descending sort on inhibition at 1 µM required. Put the labels in the requested order and write them down.
4, 5, 1, 2, 3

(P) CCSc1c(C=O)ccc2c1sc1nc(-c3ccc(OC)cc3)n(Cc3ccccc3)c(=O)c12 [No. 18]
(Q) COc1cc(-c2nc3sc4c(O)cccc4c3c(=O)n2CC2CCCO2)c(Br)c(OC)c1OC (stereo not drawn) [No. 133]
Which record shows the lower inhibition at 1 µM: the first, P , or the second, Q ? Refer to your chosen entry by its label in the reply.
P

(1) CCCCn1c(-c2cc(OC)c(OC)c(OC)c2Br)nc2sc3c(O)cc(C)cc3c2c1=O [No. 694]
(2) Cc1nc2sc3c(c2c(=O)n1-c1ccccc1)CCCC3=O [No. 25]
(3) COc1cc(-c2nc3sc4c(OC)cccc4c3c(=O)n2Cc2ccccc2)cc(OC)c1OC [No. 138]
Kindly order the items shown according to inhibition at 1 µM, from the highest value down. Answer by naming the labels in the order asked.
3, 1, 2
(3: 20.6%, 1: 12.1%, 2: 5.9%)

(a) COCc1nc2sc3c(c2c(=O)n1Cc1ccccc1)CCC(C=O)=C3Cl [No. 34]
(b) CCCc1nc2sc3c(c2c(=O)n1Cc1ccc(Br)o1)CCC(Br)(Br)C3=O [No. 104]
Lower value of inhibition at 1 µM belongs to which: a or b ? Output the label that corresponds to your choice.
a
